- Measurement Target: T1, h-FAP-His (human, UniProt Q12884 26-760)
- T1 construct: range 26-760; Bought recombinant protein with a His tag; also called human FAP-His protein; FAP recombinant protein with a His tag
- T1 sequence (Q12884 26-760 limits assumed): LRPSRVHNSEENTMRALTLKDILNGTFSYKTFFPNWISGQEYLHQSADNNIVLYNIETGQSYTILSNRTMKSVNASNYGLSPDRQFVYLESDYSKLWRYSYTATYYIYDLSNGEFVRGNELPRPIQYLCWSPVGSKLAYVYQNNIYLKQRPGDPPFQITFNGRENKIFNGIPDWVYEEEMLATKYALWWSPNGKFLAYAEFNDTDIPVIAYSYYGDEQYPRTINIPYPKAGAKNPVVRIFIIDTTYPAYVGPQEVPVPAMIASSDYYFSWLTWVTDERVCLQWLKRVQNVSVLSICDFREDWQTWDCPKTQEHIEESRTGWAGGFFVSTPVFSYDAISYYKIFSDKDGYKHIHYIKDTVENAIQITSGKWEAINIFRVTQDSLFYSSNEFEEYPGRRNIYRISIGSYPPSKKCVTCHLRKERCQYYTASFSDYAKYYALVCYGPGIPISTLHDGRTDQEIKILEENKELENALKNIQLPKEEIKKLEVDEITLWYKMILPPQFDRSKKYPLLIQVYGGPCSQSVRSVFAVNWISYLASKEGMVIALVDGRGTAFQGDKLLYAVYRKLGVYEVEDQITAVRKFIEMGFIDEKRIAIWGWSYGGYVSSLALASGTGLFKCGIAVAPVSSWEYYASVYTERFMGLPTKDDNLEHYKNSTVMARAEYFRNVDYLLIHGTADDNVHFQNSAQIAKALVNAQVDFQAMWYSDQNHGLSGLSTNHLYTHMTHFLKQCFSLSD
- Experimental Details: SPR, antibody captured by anti-human IgG Fc, h-FAP-His analyte
Readout Type: Ratio of Kd of 28H1 to Kd of test antibody

Give the measured Ratio of Kd of 28H1 to Kd of test antibody for 28H1 (antibody, V domains shown, also called control anti-FAP antibody 28H1) VH: EVQLLESGGGLVQPGGSLRLSCAASGFTFSSHAMSWVRQAPGKGLEWVSAIWASGEQYYADSVKGRFTISRDNSKNTLYLQMNSLRAEDTAVYYCAKGWLGNFDYWGQGTLVTVSS VL: EIVLTQSPGTLSLSPGERATLSCRASQSVSRSYLAWYQQKPGQAPRLLIIGASTRATGIPDRFSGSGSGTDFTLTISRLEPEDFAVYYCQQGQVIPPTFGQGTKVEIK
1

Source: patent US20250051467A1
